- experimental_system: T1, human B7-H4 extracellular domain (human, UniProt Q7Z7D3 29-258)
- T1 construct: Soluble ECD used as SPR analyte; also called huB7-H4 ECD; huB7-H4
- T1 sequence: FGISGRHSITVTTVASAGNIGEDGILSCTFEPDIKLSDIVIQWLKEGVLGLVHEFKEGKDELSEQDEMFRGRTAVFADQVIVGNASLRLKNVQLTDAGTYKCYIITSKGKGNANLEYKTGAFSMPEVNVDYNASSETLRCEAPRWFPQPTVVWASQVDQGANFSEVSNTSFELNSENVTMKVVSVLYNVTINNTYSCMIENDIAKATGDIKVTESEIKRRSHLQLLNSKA
- procedure_text: SPR 37 C; IgG1 on anti-hFc chip, ECD analyte;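 further: antibodies captured, then B7-H4 ECD injected at five 3-fold dilutions from 300 nM, 65 s association and 600 s dissociation, fitted to a 1:1 Langmuir model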
Here, each record is paired with measured kon data.
Give just the number in M⁻¹ s⁻¹; leave the unit off.

# annotated cases, reported kon shown
>  <binder>
B7-H4 antibody 1081 (antibody, human IgG1, kappa, V domains shown, IgG1 mAb format) VH: EVQLVESGGGLVQPGGSLRLSCAVSGGSFSGYYWNWIRQPPGKGLEWIGEIDHQGSTKYNPSLKSRVTISVDTAKNSFYLQMNSLRAEDTAVYYCARGLYNWNVDHWGQGTLVTVSS VL: DIQMTQSPSSLSASVGDRVTITCRASQGIRNDLGWYQQKPGKAPKRLIYAASSLQSGVPSRFSGSGSGTDFTLTISSLQPEDFATYYCLQHNAYPRTFGGGTKVEIKR

>  <kon, M⁻¹ s⁻¹>
288000

$$$$
>  <binder>
B7-H4 antibody 1083 (antibody, human IgG1, kappa, V domains shown, IgG1 mAb format) VH: EVQLVESGGGLVQPGGSLRLSCAASGGSFSGYYWNWIRQPPGKGLEWIGEINHSGSATYNPSLKSRVTISVDTAKNSFYLQMNSLRAEDTAVYYCARGLYNWNVDHWGQGTLVTVSS VL: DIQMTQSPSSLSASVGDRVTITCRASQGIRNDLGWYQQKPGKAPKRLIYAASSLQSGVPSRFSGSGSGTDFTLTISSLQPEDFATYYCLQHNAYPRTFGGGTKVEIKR

>  <kon, M⁻¹ s⁻¹>
381000

$$$$
>  <binder>
B7-H4 antibody 1115 (antibody, human IgG1, kappa, V domains shown, IgG1 mAb format) VH: EVQLLESGGGLVQPGGSLRLSCAASGFTFSSYAMSWVRQAPGKGLEWVSAISGGGGSTYYADSVKGRFTISRDNSKNTLYLQMNSLRAEDTAVYYCARDIQWYGESTLFDYWGQGTLVTVSS VL: DIQMTQSPSSLSASVGDRVTITCRASQSTRSWLAWYQQKPGKAPKLLIYKASSLESGVPSRFSGSGSGTDFTLTISSLQPEDFATYYCQQYGSYSRTFGQGTKVEIKR

>  <kon, M⁻¹ s⁻¹>
443000

$$$$

Next item in the queue.
Record B7-H4 antibody 0052 (antibody, human IgG1, kappa, V domains shown, IgG1 mAb format; parental; also called 28D10) VH: QVQLQQWGAGLLKPSETLSLTCAVYGGSFSGYYWNWIRQPPGKGLEWIGEINHSGSTKYNPSLKSRVTISGDTSKNQFSLKLNSVTAADTAVYYCVRGLYNWNVDSWGQGTLVTVSS VL: DIQMTQSPSSLSASVGDRVTITCRASQGIRNDLGWYQQKPGKAPKRLIYVASSLQSGVPSRFSGSGSGTEFTLTISSLQPEDFATYYCLQHNSYPYTFGQGTKLEIKR . Reported kon: 467000
